experimental_system: 5-hydroxytryptamine receptor 2C (Homo sapiens, UniProt P28335)
Sequence (P28335 whole entry): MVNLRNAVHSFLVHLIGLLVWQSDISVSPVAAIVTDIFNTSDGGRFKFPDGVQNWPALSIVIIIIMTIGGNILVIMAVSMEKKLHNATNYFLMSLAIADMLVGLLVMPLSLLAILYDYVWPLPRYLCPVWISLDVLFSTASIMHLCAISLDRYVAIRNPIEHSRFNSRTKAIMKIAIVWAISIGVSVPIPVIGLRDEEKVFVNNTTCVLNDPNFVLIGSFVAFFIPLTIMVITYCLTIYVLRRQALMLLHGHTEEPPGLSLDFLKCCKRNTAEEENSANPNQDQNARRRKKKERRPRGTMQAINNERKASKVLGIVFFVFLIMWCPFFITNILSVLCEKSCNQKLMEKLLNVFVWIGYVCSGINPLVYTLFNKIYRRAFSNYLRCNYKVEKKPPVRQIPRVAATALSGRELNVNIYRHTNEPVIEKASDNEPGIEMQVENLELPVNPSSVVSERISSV
method_description: Agonist activity at recombinant human 5-HT2CR expressed in HEK293 cells incubated for 2 hrs by FLIPR calcium assay
Type: functional, cell-based

smiles_repr	EC50
c1csc([C@@H]2CNCCO2)c1	3.49 µM
CCc1[nH]nc(C(=O)Nc2ccc([C@H]3CNCCO3)cc2)c1C	> 100 µM
c1cc2c(s1)[C@@H]1CNCCN1CC2	0.246 µM

###

Listed below: CLint scaled at 1 µM values for each entry.
method_description: Metabolic stability in rat liver microsomes assessed as intrinsic clearance at 1 uM incubated for 60 mins by LC-MS/MS analysis
Type: ADME, Microsome
test_conditions: read-out: CLH

compound	CLint scaled at 1 µM
COc1ccsc1C1CNCCO1 (stereo in doubt; 25a)	< 13.5 mL/min/kg
c1cc2c(s1)[C@@H]1CNCCN1CC2	< 13.5 mL/min/kg
